Entries and their Moisture gain values follow.
Experiment: Comparison of hygroscopicity
Type: physicochemical
Details: relative humidity 92.5%, room temperature, 96 hours
Record the value in %, omitting the unit from your answer.

- molecule: "O=c1ccc2ccc(CCN3CCN(c4cccc5sccc45)CC3)cc2[nH]1"
  numeric.result: "−0.16"
- molecule: "Cl.O.O=c1ccc2ccc(CCN3CCN(c4cccc5sccc45)CC3)cc2[nH]1 [Monohydrochloride of compound Z]"
  numeric.result: 7.01
- molecule: "CS(=O)(=O)O.O=c1ccc2ccc(CCN3CCN(c4cccc5sccc45)CC3)cc2[nH]1 [Methanesulfonate of compound Z]"
  numeric.result: 1.74

Here's the next entry for you.
Challenge: Provide Moisture gain value for the following molecule: O=C(O)CCC(=O)O.O=c1ccc2ccc(CCN3CCN(c4cccc5sccc45)CC3)cc2[nH]1 [Succinate of compound Z]
Response given: 2.02
